Values compiled from paper PMC3543149.

target: PKC-ι (Homo sapiens); test: […]-ATP kinase assay of recombinant PKC-ι activated by PIP3, dose response
Sequence (P41743 2-596): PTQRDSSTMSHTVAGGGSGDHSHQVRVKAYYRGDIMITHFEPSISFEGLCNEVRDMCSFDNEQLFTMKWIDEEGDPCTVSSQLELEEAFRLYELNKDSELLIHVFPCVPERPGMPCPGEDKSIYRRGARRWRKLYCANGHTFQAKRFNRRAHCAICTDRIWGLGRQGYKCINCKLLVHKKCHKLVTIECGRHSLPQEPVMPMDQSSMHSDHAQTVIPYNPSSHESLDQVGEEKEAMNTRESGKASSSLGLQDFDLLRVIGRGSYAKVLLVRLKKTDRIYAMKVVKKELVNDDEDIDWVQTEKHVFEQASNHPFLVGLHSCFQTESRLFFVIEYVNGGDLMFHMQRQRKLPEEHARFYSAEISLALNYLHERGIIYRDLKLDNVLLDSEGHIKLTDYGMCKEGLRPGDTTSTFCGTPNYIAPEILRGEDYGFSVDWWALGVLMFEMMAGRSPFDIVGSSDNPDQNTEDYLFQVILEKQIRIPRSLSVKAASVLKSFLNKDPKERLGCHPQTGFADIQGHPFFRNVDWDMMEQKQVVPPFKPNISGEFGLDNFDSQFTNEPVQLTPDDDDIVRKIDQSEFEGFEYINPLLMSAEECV
pIC50: −log10 of the molar value.
parameter_measured: pIC50

## Input Look up pIC50: NC(=O)c1ncn([C@@H]2C[C@H](COP(=O)(O)O)[C@@H](O)[C@H]2O)c1N
## Output 7.00 to 8.00
